Hello, the source for this data is patent US20230357354A1, in case you need it.

Biological target: recombinant His-tagged CD38 (Homo sapiens)
Assay: Pepscan-based ELISA of His-tagged CD38 on CD31 peptide arrays
Format: binding
Conditions: mimic type LOOP15 (single loop, mP2 CLIPS); sample with the highest signal
Binary label based on Value (binding intensity of His-tagged CD38), LOOP15 conformational peptide array with cut-off 500 mAU: below gives Y, not below gives N.

1) 244 (CTESYFIPEVRIYDSGC) [compound 244] : Y
2) 257 (CIQVTHLAQEFPEIIIC) [compound 257] : N
3) 253 (CNFVILEFPVEEQDRVC) [compound 253] : N
4) 250 (CKNSRDQNFVILEFPVC) [compound 250] : N
5) 254 (CFVILEFPVEEQDRVLC) [compound 254] : N
6) 237 (CYNISSMKSTESYFIPC) [compound 237] : Y
